LD50 at 360 h values for the molecules below.
test: Acute toxicity in mice (LD 50); type: in vivo; details: mouse, in vivo; intravenous administration, mice, 15 days observation
Counter-ions that a name gives are not always drawn.
READOUT_LABEL: LD50 at 360 h (mg/kg)

1. CCCCCNCC1COc2ccccc2C1=O (stereo not drawn) [LJ 1046, hydrochloride] :: 18
2. CCCNCC1COc2ccccc2C1=O (stereo not drawn) [LJ 1048, hydrochloride] :: 36
3. COCCCCNCC1COc2ccccc2C1=O (stereo not drawn) [LJ 1053, hydrochloride] :: 38
4. COCCCNCC1COc2ccccc2C1=O (stereo not drawn) [LJ 1051, hydrochloride] :: 33
5. COCCNCC1COc2ccccc2C1=O (stereo not drawn) [LJ 1052, hydrochloride] :: 47
6. CCCCNCC1COc2ccccc2C1=O (stereo not drawn) [LJ 1049, hydrochloride] :: 24

Where do the numbers come from? From patent US4065575A.
